Values compiled from patent US7842324B2.

# MEASURED_ON: hT1R2/hT1R3 sweet receptor expressed in HEK293 cell line (Homo sapiens, UniProt Q7RTX0+Q8TE23)
# Construct: expressed in transfected cells; host or cells: HEK293 derivative stably expressing Gα15 and hT1R2/hT1R3, clone S-9
# Sequence (Q8TE23 20-839): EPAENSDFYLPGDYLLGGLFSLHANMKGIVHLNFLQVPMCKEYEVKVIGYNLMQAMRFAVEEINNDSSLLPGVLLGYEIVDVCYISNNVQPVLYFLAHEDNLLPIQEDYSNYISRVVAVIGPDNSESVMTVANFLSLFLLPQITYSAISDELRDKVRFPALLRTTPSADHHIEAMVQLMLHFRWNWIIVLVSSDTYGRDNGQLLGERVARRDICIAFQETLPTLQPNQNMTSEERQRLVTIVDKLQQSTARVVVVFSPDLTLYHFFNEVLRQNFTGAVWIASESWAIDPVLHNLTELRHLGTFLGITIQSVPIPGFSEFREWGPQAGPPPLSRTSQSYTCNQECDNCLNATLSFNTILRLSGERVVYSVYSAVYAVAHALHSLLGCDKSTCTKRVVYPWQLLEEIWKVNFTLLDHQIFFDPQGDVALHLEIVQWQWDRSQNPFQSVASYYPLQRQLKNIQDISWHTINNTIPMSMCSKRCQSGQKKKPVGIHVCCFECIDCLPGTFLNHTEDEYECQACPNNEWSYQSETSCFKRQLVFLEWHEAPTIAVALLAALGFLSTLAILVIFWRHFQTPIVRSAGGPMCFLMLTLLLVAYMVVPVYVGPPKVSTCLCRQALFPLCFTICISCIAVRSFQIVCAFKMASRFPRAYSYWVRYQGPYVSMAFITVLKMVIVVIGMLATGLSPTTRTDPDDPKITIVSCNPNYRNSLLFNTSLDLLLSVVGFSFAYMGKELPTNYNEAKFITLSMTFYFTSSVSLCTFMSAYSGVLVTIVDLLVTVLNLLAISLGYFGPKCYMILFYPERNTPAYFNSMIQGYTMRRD
# Sequence (Q7RTX0 21-852): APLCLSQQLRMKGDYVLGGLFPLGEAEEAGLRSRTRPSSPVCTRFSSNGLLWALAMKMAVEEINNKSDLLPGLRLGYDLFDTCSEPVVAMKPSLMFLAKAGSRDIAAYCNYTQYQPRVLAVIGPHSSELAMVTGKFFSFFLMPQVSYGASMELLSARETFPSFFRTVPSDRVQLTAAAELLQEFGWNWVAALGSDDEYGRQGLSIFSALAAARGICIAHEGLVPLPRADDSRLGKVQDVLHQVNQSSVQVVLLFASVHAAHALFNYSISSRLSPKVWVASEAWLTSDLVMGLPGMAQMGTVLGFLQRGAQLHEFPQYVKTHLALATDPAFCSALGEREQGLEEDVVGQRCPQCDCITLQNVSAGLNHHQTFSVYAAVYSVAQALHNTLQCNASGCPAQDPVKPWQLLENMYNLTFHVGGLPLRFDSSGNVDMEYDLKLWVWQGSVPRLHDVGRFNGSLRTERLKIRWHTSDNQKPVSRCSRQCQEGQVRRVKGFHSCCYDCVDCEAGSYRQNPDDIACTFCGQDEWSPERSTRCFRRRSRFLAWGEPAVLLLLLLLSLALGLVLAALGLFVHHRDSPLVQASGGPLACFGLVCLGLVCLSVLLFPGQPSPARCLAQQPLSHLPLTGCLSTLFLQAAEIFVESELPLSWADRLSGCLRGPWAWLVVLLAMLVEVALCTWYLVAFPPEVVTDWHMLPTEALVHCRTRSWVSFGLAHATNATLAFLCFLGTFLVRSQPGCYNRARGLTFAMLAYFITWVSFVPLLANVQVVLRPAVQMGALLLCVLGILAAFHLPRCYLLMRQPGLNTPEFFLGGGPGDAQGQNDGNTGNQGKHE
# METHOD: In vitro hT1R2/hT1R3-HEK293 taste receptor activation assay (FLIPR)
# Format: cell-based
# MEASUREMENT_CONDITIONS: read-out: EC50 for activation of a hT1R2/hT1R3 sweet receptor expressed in HEK293 cell line
READOUT_TYPE: pEC50
pEC50 (log units): -log10 of the concentration in mol/L.

Cc1cccc(-c2ccc(C(C)(C)C(=O)NCC(C)C)cc2)c1	5.52
CCC(CC)NC(=O)C(C)(C)c1ccc(-c2cncc(C#N)c2)cc1	7.15
CC(C)CNC(=O)C(C)(C)c1nc(-c2ccccc2)no1	5.19
CC[C@@H](CO)NC(=O)C(C)(C)c1ccc(-c2cccc(COC)c2)cc1	5.73

Shift focus to the following entry.
If you can, please state the reported pEC50 value of "CC(C)CNC(=O)C(C)(C)c1ccc(-c2cccc(OC(C)C)c2)cc1" .
5.38

* * *

# MEASURED_ON: hT1R2/hT1R3 sweet receptor expressed in HEK293 cell line (Homo sapiens, UniProt Q7RTX0+Q8TE23)
# Construct: expressed in transfected cells; host or cells: HEK293 derivative stably expressing Gα15 and hT1R2/hT1R3, clone S-9
# METHOD: In vitro hT1R2/hT1R3-HEK293 taste receptor activation assay (FLIPR)
# Type: cell-based
# MEASUREMENT_CONDITIONS: Table A; read-out: SWEET EC50
The following compounds are listed with their measured EC50 values.
Dear colleague, please return just the value in nM, with no unit written.

If you can, please state the reported EC50 value of CC(NC(=O)C(C)(C)c1ccc(-c2cncc(C#N)c2)cc1)c1ccccc1 (stereo not drawn) [Compound A20] .
710

If you can, please state the reported EC50 value of CC(C)(C(=O)NCC(O)c1ccco1)c1ccc(-c2cncc(C#N)n2)cc1 (stereo not drawn) [Compound A65] .
1310

If you can, please state the reported EC50 value of CC(=O)c1ccccc1-c1ccc(C(C)(C)C(=O)NCC(C)C)cc1 [Compound A24] .
1170

If you can, please state the reported EC50 value of CCC(CO)NC(=O)C(C)(C)c1ccc(-c2ccoc2)cc1 (stereo not drawn) [Compound A77] .
1250

If you can, please state the reported EC50 value of CC(C)CCNC(=O)C(C)(C)c1ccc(-c2cncc(C#N)c2)cc1 [Compound A21] .
940

* * *

The following molecules are listed with their measured pEC50 values.
# MEASURED_ON: hT1R2/hT1R3 sweet receptor expressed in HEK293 cell line (Homo sapiens, UniProt Q7RTX0+Q8TE23)
# Construct: expressed in transfected cells; host or cells: HEK293 derivative stably expressing Gα15 and hT1R2/hT1R3, clone S-9
# METHOD: In vitro hT1R2/hT1R3-HEK293 taste receptor activation assay (FLIPR)
# Format: cell-based
# MEASUREMENT_CONDITIONS: Table A; read-out: SWEET EC50
pEC50 (log units): -log10 of the concentration in mol/L.

Take a look at these entries with their results.
CC(C)CNC(=O)C(C)(C)c1ccc(-c2cc(CO)ccc2C=O)cc1	6.20
CC(C)CNC(=O)C(C)(C)c1ccc(-c2ccc3[nH]ccc3c2)cc1	5.47
CC(C)(C(=O)NC1CC1)c1ccc(-c2cncc(C#N)n2)cc1	6.49

Shift focus to the following entry.
If you can, please state the reported pEC50 value of "COC(=O)c1ccccc1-c1ccc(C(C)(C)C(=O)NCC(C)C)cc1" .
5.40

* * *

# MEASURED_ON: hT1R2/hT1R3 sweet receptor expressed in HEK293 cell line (Homo sapiens, UniProt Q7RTX0+Q8TE23)
# Construct: expressed in transfected cells; host or cells: HEK293 derivative stably expressing Gα15 and hT1R2/hT1R3, clone S-9
# METHOD: In vitro hT1R2/hT1R3-HEK293 taste receptor activation assay (FLIPR)
# Assay type: cell-based
# MEASUREMENT_CONDITIONS: Table A; read-out: SWEET EC50
Rule: measured EC50 below 400 nM gets yes; anything equal to or greater than 400 nM gets no.

CC(C)CNC(=O)C(C)(C)c1ccc(-c2cccc(C(C)C)c2)cc1	no
CC(C)(C(=O)NC1CCCC1)c1ccc(-c2cncc(C#N)n2)cc1	yes
CC(C(=O)NC1CC1)c1ccc(-c2ccccc2)c(F)c1 (stereo not drawn)	no
CC(C)CNC(=O)C(C)(C)c1ccc(-c2cccc(C#N)c2CO)cc1	no
CC(C)(C(=O)NC[C@@H]1CCCO1)c1ccc(-c2cncc(C#N)c2)cc1	no
CC(C)NC(=O)C(C)(C)c1ccc(-c2cncc(C#N)n2)cc1	no
CCC(C)CNC(=O)C(C)(C)c1ccc(-c2cncc(C#N)c2)cc1 (stereo not drawn)	yes
CC(C)(C(=O)NC1CCC1)c1ccc(-c2cncc(C#N)n2)cc1	yes

Please state whether EC50 is below 400 nM for CCC(C)CNC(=O)C(C)(C)c1ccc(-c2cncc(COC)c2)cc1 (stereo not drawn)
no

* * *

# MEASURED_ON: hT1R2/hT1R3 sweet receptor expressed in HEK293 cell line (Homo sapiens, UniProt Q7RTX0+Q8TE23)
# Construct: expressed in transfected cells; host or cells: HEK293 derivative stably expressing Gα15 and hT1R2/hT1R3, clone S-9
# Sequence (Q8TE23 20-839): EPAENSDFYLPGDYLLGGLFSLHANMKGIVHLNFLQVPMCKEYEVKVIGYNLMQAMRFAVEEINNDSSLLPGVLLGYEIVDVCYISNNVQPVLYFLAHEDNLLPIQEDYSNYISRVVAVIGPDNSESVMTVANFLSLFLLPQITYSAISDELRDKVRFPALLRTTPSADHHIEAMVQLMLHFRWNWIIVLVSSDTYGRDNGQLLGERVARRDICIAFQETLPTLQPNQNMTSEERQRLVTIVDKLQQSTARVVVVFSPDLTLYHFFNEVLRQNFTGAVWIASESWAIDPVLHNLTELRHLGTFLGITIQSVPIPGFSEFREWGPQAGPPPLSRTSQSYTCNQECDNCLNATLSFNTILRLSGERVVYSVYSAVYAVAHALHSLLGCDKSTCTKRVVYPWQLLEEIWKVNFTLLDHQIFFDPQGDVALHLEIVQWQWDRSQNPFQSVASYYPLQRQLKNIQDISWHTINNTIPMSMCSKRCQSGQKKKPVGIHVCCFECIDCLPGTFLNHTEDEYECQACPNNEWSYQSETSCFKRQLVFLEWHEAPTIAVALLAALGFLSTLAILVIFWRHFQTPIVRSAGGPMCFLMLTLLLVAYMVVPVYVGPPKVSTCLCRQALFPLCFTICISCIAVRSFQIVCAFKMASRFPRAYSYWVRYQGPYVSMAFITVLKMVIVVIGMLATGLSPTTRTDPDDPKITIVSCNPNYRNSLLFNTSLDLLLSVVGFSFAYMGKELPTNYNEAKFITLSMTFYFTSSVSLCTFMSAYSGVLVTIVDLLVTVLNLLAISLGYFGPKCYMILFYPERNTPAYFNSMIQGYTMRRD
# Sequence (Q7RTX0 21-852): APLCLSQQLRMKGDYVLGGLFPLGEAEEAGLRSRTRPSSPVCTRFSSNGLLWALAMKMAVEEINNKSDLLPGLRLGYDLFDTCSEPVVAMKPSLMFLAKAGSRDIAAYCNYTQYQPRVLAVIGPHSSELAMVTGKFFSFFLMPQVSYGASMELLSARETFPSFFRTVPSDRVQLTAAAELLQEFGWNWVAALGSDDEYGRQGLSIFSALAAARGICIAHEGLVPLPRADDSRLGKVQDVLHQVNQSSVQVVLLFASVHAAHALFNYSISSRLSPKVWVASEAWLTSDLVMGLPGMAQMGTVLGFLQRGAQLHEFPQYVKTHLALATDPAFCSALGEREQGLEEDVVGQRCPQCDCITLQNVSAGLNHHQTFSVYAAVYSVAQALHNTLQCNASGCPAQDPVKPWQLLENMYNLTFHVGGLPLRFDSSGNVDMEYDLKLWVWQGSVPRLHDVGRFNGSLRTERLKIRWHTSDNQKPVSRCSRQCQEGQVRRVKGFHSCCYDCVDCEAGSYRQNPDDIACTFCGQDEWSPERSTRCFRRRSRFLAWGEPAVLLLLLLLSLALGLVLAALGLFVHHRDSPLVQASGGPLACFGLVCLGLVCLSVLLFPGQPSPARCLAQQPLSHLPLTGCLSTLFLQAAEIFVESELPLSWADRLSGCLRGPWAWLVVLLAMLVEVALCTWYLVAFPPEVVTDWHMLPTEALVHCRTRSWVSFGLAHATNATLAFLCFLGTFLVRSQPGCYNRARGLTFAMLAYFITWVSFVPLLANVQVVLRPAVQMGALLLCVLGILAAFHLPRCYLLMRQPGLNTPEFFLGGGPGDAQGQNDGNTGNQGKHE
# METHOD: In vitro hT1R2/hT1R3-HEK293 taste receptor activation assay (FLIPR)
# Type: cell-based
# MEASUREMENT_CONDITIONS: Table A; read-out: SWEET EC50
# Source text: An HEK293 cell line derivative (Chandrashekar et al., Cell (2000) 100:703-711) that stably expresses Gα15 and hT1R2/hT1R3 (Li et al., Proc Natl Acad Sci USA (2002) 99:4692-4696), see also PCT Publication No. WO 03/001876 A2) was used to identify compounds with sweet taste enhancing properties. Compounds covered in this document were initially selected based on their activity on the hT1R2/hT1R3-HEK293-Gα15 cell line (Li et al. vide supra). […]
READOUT_TYPE: pEC50
pEC50 (log units): -log10 of the concentration in mol/L.

Take a look at these entries with their results.
CC(C)(C(=O)NCC(O)c1ccccc1)c1ccc(-c2cncc(C#N)c2)cc1 (stereo not shown) [Compound A61]	5.93
CC(NC(=O)C(C)(C)c1ccc(-c2cncc(C#N)n2)cc1)c1ccco1 (stereo not shown) [Compound A42]	7.00
CC(C)(C(=O)NCc1ccoc1)c1ccc(-c2cncc(C#N)n2)cc1 [Compound A54]	6.23

Shift focus to the following entry.
If you can, please state the reported pEC50 value of CC[C@@H](CO)NC(=O)C(C)(C)c1ccc(-c2cncc(C#N)c2)cc1 [Compound A75] .
6.17
